measurement protocol: Toxicity liver stage against HepG2, at 10uM
Type: cell-based
Parameters: test concentration 10 uM, cell line HepG2-A16-CD81EGFP
stated conditions: human, HepG2-A16-CD81EGFP cells; read-out: INHIBITION
assay endpoint: cytotoxicity at 10 µM (%)
Please respond with the number in % and leave the unit unwritten.

// lookup cytotoxicity at 10 µM for N#Cc1ccc(OC2CCN(C(=O)COCC3CCCO3)CC2)cc1 (stereo not given) 12.9

// lookup cytotoxicity at 10 µM for `O=C(Nc1ccc(-n2cncn2)c(F)c1)C1CCN(C(=O)C2CC2)CC1` -2.83

// lookup cytotoxicity at 10 µM for `CN(C(=O)c1ccc(C#N)cc1)C1CCN(c2ccccn2)CC1` -7.56

// lookup cytotoxicity at 10 µM for `COCCN1C[C@@H]2CC[C@H]1CN(C(=O)CCn1cc(Cl)cn1)C2` 7.62

// lookup cytotoxicity at 10 µM for `Cc1nc(CN2CCc3ncnc(C4CC4)c3CC2)cs1` -81.9

---

measurement protocol: Toxicity liver stage against HepG2, at 10uM
Assay type: cell-based
Set-up: test concentration 10 uM, cell line HepG2-A16-CD81EGFP
stated conditions: human, HepG2-A16-CD81EGFP cells; read-out: INHIBITION
assay endpoint: cytotoxicity at 10 µM (%)
Please respond with the number in % and leave the unit unwritten.

// lookup cytotoxicity at 10 µM for CC(C)N1CCC(C(=O)N2CCC(c3ccc(F)cc3)C2)CC1 (configuration not stated) -58.1

// lookup cytotoxicity at 10 µM for `CCOc1ccc(Br)cc1S(=O)(=O)N(CC)Cc1ccc(N(C)C)cc1` 14.1

// lookup cytotoxicity at 10 µM for `CCC(=O)N1CCCc2c(cnn2C)C1` 3.12

// lookup cytotoxicity at 10 µM for O=C(CCc1cccs1)NCC1CCCN1c1cccnn1 (configuration not stated) -1.9

// lookup cytotoxicity at 10 µM for Cc1cc(N(C)C)nc(C2COCCN2Cc2cscn2)n1 (configuration not stated) -6.94

// lookup cytotoxicity at 10 µM for `Cc1nc(CN2CCCC23CCN(c2nc4ccccc4s2)CC3)co1` -1.99

// lookup cytotoxicity at 10 µM for `Cc1cc2c(=O)n3c(nc2s1)CCN(Cc1cncn1C)CC3` -14.2

// lookup cytotoxicity at 10 µM for CC1CCCN(C(=O)Nc2ccc(F)c(C(N)=O)c2)C1 (configuration not stated) -7.48

// lookup cytotoxicity at 10 µM for O=C(C1CCCCO1)N1CCc2ncnc(NCc3ccon3)c2CC1 (configuration not stated) 13.1

// lookup cytotoxicity at 10 µM for CC(Oc1cc(Cl)cc(Cl)c1)C(=O)NCCS(N)(=O)=O (configuration not stated) -11.7

// lookup cytotoxicity at 10 µM for `c1ccc2c(Cc3nnc([C@H]4CCN(C5CCC5)C4)o3)c[nH]c2c1` -0.0653

// lookup cytotoxicity at 10 µM for CCOC(=O)C1(CCOC)CCCN(Cc2nccn2CC)C1 (configuration not stated) 10.8

// lookup cytotoxicity at 10 µM for `O=C(C1CC1)N1CCN(C(=O)CSc2ccccn2)[C@H]2CS(=O)(=O)C[C@H]21` -24.6

// lookup cytotoxicity at 10 µM for COc1ccc(COCC(=O)NC2CCc3nc(C)cn3C2)cc1 (configuration not stated) 1.6

// lookup cytotoxicity at 10 µM for `CCC(=O)N1CCC2(CC1)c1nc[nH]c1CCN2S(C)(=O)=O` -11.4

// lookup cytotoxicity at 10 µM for CC(C)c1nc(CNC(C(=O)N2CCOCC2)C(C)C)no1 (configuration not stated) 6.43

// lookup cytotoxicity at 10 µM for `Cc1cc(CNC(=O)CCCN2CCCCC2)n(C)n1` -10.3

// lookup cytotoxicity at 10 µM for `C[C@@H]1CN(CCOc2ccc(Cl)cc2)CC[C@@]1(O)C1CCOCC1` 19.4

// lookup cytotoxicity at 10 µM for CC1CCN(S(=O)(=O)NC2CCCCNC2=O)CC1 (configuration not stated) 14

// lookup cytotoxicity at 10 µM for `CN1CCN(C(=O)C2CC=CC2)c2ccccc21` 14.9

// lookup cytotoxicity at 10 µM for COc1c(CNC2CCOc3c(F)cccc32)c(C)nn1C (configuration not stated) 7.5

// lookup cytotoxicity at 10 µM for CC(C(=O)Nc1ccc(N2CCCCC2)nc1)n1cncn1 (configuration not stated) -31.2

// lookup cytotoxicity at 10 µM for `Cc1cnn(CCC(=O)N2CCCN(c3ccccc3C#N)CC2)c1` -2.85

// lookup cytotoxicity at 10 µM for COc1ccc(CNC(=O)C(NC(=O)Cc2ccccc2)C(C)C)cn1 (configuration not stated) -0.943

// lookup cytotoxicity at 10 µM for `Cc1ccc(CN2C[C@H](OCCN(C)C)[C@H]3OCCC[C@H]32)o1` -146

// lookup cytotoxicity at 10 µM for `FC(F)(F)c1cc(NCCCn2cccn2)nc(-c2cccnc2)n1` 8.06

// lookup cytotoxicity at 10 µM for COc1nc2c(cc1C(=O)N1CCCOC(CN3CCCC3)C1)CCC2 (configuration not stated) -48.8

// lookup cytotoxicity at 10 µM for `O[C@@H]1CN(Cc2cnccn2)C[C@H]1Oc1ccccc1` -29.5

// lookup cytotoxicity at 10 µM for CCn1ncnc1CN1CCC(CNC(=O)c2cccc(C)n2)C1 (configuration not stated) 8.57

// lookup cytotoxicity at 10 µM for `Cc1ccc(C(=O)N(C)CCNS(C)(=O)=O)cc1Br` -45.8

// lookup cytotoxicity at 10 µM for NC(=O)CN1CCC(NC(=O)N2CCCC2c2ccsc2)CC1 (configuration not stated) 1.91

// lookup cytotoxicity at 10 µM for Cc1nn(C)c(C)c1CN(C)C(C(=O)O)c1ccc(F)cc1F (configuration not stated) 8.42

// lookup cytotoxicity at 10 µM for Clc1ccc(CN2CCCC2Cn2cncn2)c2ncccc12 (configuration not stated) -9.66

// lookup cytotoxicity at 10 µM for `CCO[C@H]1C[C@@H](O)C12CCN(C(=O)CN1CCCCCC1=O)CC2` 2.71

// lookup cytotoxicity at 10 µM for `O=C1CN(c2ccc(C(=O)N3CCc4ccccc43)cn2)CCN1` 2.66

// lookup cytotoxicity at 10 µM for Cc1ccc2c(c1)c(CNC(=O)C1CCCN(CC(N)=O)C1)nn2C (configuration not stated) -17.9

// lookup cytotoxicity at 10 µM for `CNC(=O)[C@@]12CCC3(CCNCC3)[C@@H]1CN(S(C)(=O)=O)C2` -2.86
